Origin of values: patent US7713963B2

Test system: eNOS promoter
Assay: Activation of eNOS transcription (eNOS promoter-luciferase reporter gene assay)
Assay type: cell-based, human
Settings: Homo sapiens, Endothelial cell, 18 h, EC50 of transcription induction ratio, determined graphically; human endothelial cell line, 18 h incubation; read-out: EC-50
Measured Property: pEC50
Quick note: pEC50 values are minus log10 of concentrations in mol/L.

Reference set (2 entries):
{"columns": ["Compound", "pEC50"],
 "data": [
  ["Nc1c(C(=O)NC2Cc3ccccc3C2)cnn1-c1ccccn1 [Compound 386A]", 5.29],
  ["O=C(NC1Cc2ccccc2C1)c1ccc(-c2cccnc2)cc1 [Compound 435, N-INDAN-2-YL-4-PYRIDIN-3-YL-BENZAMIDE]", 4.85]
]}

So what does the record say about pEC50 for CCCCOc1ccc(C(=O)NC2Cc3ccccc3C2)cc1 [Compound 30, 4-BUTOXY-N-INDAN-2-YL-BENZAMIDE] ?
5.52

Proceed to O=C(NC1Cc2ccccc2C1)c1cccc(Cl)c1 [Compound 283, 3-CHLORO-N-INDAN-2-YL-BENZAMIDE]
4.82

Proceed to Cc1csc(C(=O)NC2Cc3ccccc3C2)c1Cl
6.54

Proceed to O=C(NC1Cc2ccccc2C1)c1ccoc1 [Compound 296, FURAN-3-CARBOXYLIC ACID INDAN-2-YLAMIDE]
4.89

Proceed to COc1ccc(C(=O)NC2Cc3ccccc3C2)cc1Cl
5.22

Proceed to Nc1c(C(=O)NC2Cc3ccccc3C2)cnn1-c1ccccc1
5.43

====

Known maximal fold induction of a selection of compounds
System: eNOS promoter
Assay: Activation of eNOS transcription (eNOS promoter-luciferase reporter gene assay)
Format: cell-based, human
Settings: Homo sapiens, 18 h, maximum transcription induction ratio (luciferase with compound / solvent alone); 18 h incubation; read-out: TIR (max)
Answer using only a numeral; do not append any unit.

{"columns": ["Compound", "maximal fold induction"],
 "data": [
  ["CCCCCc1ccc(C(=O)NC2Cc3ccccc3C2)cc1 [Compound 293, N-INDAN-2-YL-4-PENTYL-BENZAMIDE]", 1.7]
]}

So what does the record say about maximal fold induction for Cc1sccc1C(=O)NC1Cc2ccccc2C1 ?
3

Proceed to O=C(NC1Cc2ccccc2C1)c1ccc(OCC(F)(F)F)cc1 [Compound 386B]
2.5

Proceed to CCNc1ccc(C(=O)NC2Cc3ccccc3C2)cc1 [Compound 268, 4-ETHYLAMINO-N-INDAN-2-YL-BENZAMIDE]
3

Proceed to COC(=O)c1cccc(C(=O)NC2Cc3ccccc3C2)c1
2.8

Proceed to CCCc1c(C(=O)NC2Cc3ccccc3C2)cnn1-c1ccc(Cl)cc1
2.3

Proceed to O=C(NC1Cc2ccccc2C1)c1cc2cc(Cl)ccc2[nH]1
2.2

Proceed to O=C(NC1Cc2cccc(C(F)(F)F)c2C1)c1ccc(F)cc1 (centres unmarked)
2.6

Proceed to Cc1cc(C(=O)NC2Cc3ccccc3C2)ccc1Cl [Compound 27, 4-CHLORO-3-METHYL-N-INDAN-2-YL-BENZAMIDE]
3.6

Proceed to CCc1sccc1C(=O)NC1Cc2ccccc2C1
2.5

Proceed to O=C(NC1Cc2ccccc2C1)c1ccoc1 [Compound 296, FURAN-3-CARBOXYLIC ACID INDAN-2-YLAMIDE]
2.5

====

Known pEC50 of a selection of compounds
Test system: eNOS promoter
Test: Activation of eNOS transcription (eNOS promoter-luciferase reporter gene assay)
Type: cell-based, human
Conditions: Homo sapiens, Endothelial cell, 18 h, EC50 of transcription induction ratio, determined graphically; human endothelial cell line, 18 h incubation; read-out: EC-50
Quick note: pEC50 values are minus log10 of concentrations in mol/L.

Reference set (4 entries):
{"columns": ["Compound", "pEC50"],
 "data": [
  ["CCCc1c(C(=O)NC2Cc3ccccc3C2)cnn1-c1ccc(Cl)cc1 [Compound 322]", 4.64],
  ["Cc1ccc(C)n1-c1ccc(C(=O)NC2Cc3ccccc3C2)cc1 [Compound 327]", 5.59],
  ["Cc1ccc(C(=O)NC2Cc3ccccc3C2)cc1C [Compound 29, 3,4-DIMETHYL-N-INDAN-2-YL-BENZAMIDE]", 6.10],
  ["CCCCCc1ccc(C(=O)NC2Cc3ccccc3C2)cc1 [Compound 293, N-INDAN-2-YL-4-PENTYL-BENZAMIDE]", 4.85]
]}

So what does the record say about pEC50 for CCOc1ccc(C(=O)NC2Cc3ccccc3C2)c(O)c1 [Compound 23] ?
5.30

Proceed to CC(C)Oc1ccc(C(=O)NC2Cc3ccccc3C2)cc1 [Compound 28, 4-ISOPROPYLOXY-N-INDAN-2-YL-BENZAMIDE]
5.60

Proceed to Cc1ccc(F)cc1C(=O)NC1Cc2ccccc2C1 [Compound 248, 5-FLUORO-N-INDAN-2-YL-2-METHYL-BENZAMIDE]
5.11

Proceed to O=C(NC1Cc2ccccc2C1)c1cc(Cl)ccc1F [Compound 330, 5-CHLORO-2-FLUORO-N-INDAN-2-YL-BENZAMIDE]
4.92

====

Tested on: eNOS promoter
Assay: Activation of eNOS transcription (eNOS promoter-luciferase reporter gene assay)
Format: cell-based, human
Details: Homo sapiens, Endothelial cell, 18 h, EC50 of transcription induction ratio, determined graphically; human endothelial cell line, 18 h incubation; read-out: EC-50
pEC50: −log10 of the molar value.
Kind request: treat 6 as inclusive, so pEC50 at 6 or higher is Met, anything lower is Not met.

{"columns": ["Compound", "Target Or System", "Assigned Category"],
 "data": [
  ["O=C(NC1Cc2ccccc2C1)c1cccc(Cl)c1F [Compound 250, 3-CHLORO-2-FLUORO-N-INDAN-2-YL-BENZAMIDE]", "eNOS promoter", "Not met"]
]}

Identify whether the reported pEC50 of the following compound is 6 or greater: Cc1ccc(C(=O)NC2Cc3ccccc3C2)cc1Cl [Compound 34, 3-CHLORO-4-METHYL-N-INDAN-2-YL-BENZAMIDE]
Not met

Proceed to O=C(NC1Cc2ccccc2C1)c1cc2cc(Cl)ccc2[nH]1 [Compound 315]
Not met

Proceed to Cc1cc(C)c(C(=O)NC2Cc3ccccc3C2)cn1 [Compound 189, N-INDAN-2-YL-4,6-DIMETHYL-NICOTINAMIDE]
Not met

====

System: eNOS promoter
Test: Activation of eNOS transcription (eNOS promoter-luciferase reporter gene assay)
Format: cell-based, human
Details: Homo sapiens, 18 h, maximum transcription induction ratio (luciferase with compound / solvent alone); 18 h incubation; read-out: TIR (max)
Measured Property: maximal fold induction
Answer using only a numeral; do not append any unit.

{"columns": ["Compound", "Quantitative Result"],
 "data": [
  ["O=C(NC1Cc2ccc(O)cc2C1)c1ccc(F)cc1 (centres unmarked)", 3.5],
  ["CC1=C(C(=O)NC2Cc3ccccc3C2)Cc2ccccc21", 2.6],
  ["Cc1ccc(C(=O)Nc2cccc(C(=O)NC3Cc4ccccc4C3)c2)cc1", 2.5],
  ["O=C(NC1Cc2ccccc2C1)c1ccc(F)cc1 [Compound 21, 4-FLUORO-N-(INDAN-2-YL)-BENZAMIDE]", 4.1],
  ["O=C(NC1Cc2ccc(F)cc2C1)c1ccc(F)cc1 (centres unmarked)", 2.95],
  ["Cc1cc(C)c(C(=O)NC2Cc3ccccc3C2)c(C)c1 [Compound 282, N-INDAN-2-YL-2,4,6-TRIMETHYL-BENZAMIDE]", 2.3],
  ["Cc1cc(C(=O)NC2Cc3ccccc3C2)c(C)s1", 2.5]
]}

So what does the record say about maximal fold induction for CCCC(=O)Nc1cccc(C(=O)NC2Cc3ccccc3C2)c1 [Compound 375, 3-BUTYRYLAMINO-N-INDAN-2-YL-BENZAMIDE] ?
2.3

====

System: eNOS promoter
Assay: Activation of eNOS transcription (eNOS promoter-luciferase reporter gene assay)
Format: cell-based, human
Settings: Homo sapiens, 18 h, maximum transcription induction ratio (luciferase with compound / solvent alone); 18 h incubation; read-out: TIR (max)
Known maximal fold induction of a selection of molecules

Reference set (4 entries):
{"columns": ["Molecule", "maximal fold induction"],
 "data": [
  ["O=C(NC1Cc2ccccc2C1)c1ccc2ccccc2c1", 2.4],
  ["O=C(NC1Cc2cccc(Br)c2C1)c1ccc(F)cc1 (single isomer, unassigned) [Compound 396A]", 3.55],
  ["Cc1c(C(=O)NC2Cc3ccccc3C2)cccc1C(F)(F)F", 2.5],
  ["COc1ccc(C(=O)NC2Cc3ccccc3C2)cc1Cl", 3.05]
]}

// fetch eNOS promoter maximal fold induction for Cc1nc(C(F)(F)F)ccc1C(=O)NC1Cc2ccccc2C1
2.5

====

Known log10 of EC50 of a selection of molecules
Tested on: eNOS promoter
Experiment: Activation of eNOS transcription (eNOS promoter-luciferase reporter gene assay)
Type: cell-based, human
Conditions: Homo sapiens, Endothelial cell, 18 h, EC50 of transcription induction ratio, determined graphically; human endothelial cell line, 18 h incubation; read-out: EC-50
Scale: log10; quantity: EC50; unit before log: nM

Reference set (6 entries):
{"columns": ["Molecule", "Target Or System", "Measured Property", "Quantitative Result"],
 "data": [
  ["O=C(NC1Cc2ccccc2C1)c1ccc(-n2ccnc2)cc1 [Compound 328, 4-IMIDAZOL-1-YL-N-INDAN-2-YL-BENZAMIDE]", "eNOS promoter", "log10 of EC50", 4.38],
  ["CS(=O)(=O)c1ccc(C(=O)NC2Cc3ccccc3C2)c(Cl)c1", "eNOS promoter", "log10 of EC50", 4.20],
  ["COc1ccc(C(=O)NC2Cc3ccccc3C2)cc1 [Compound 291, N-INDAN-2-YL-4-METHOXY-BENZAMIDE]", "eNOS promoter", "log10 of EC50", 2.38],
  ["CC(C)C(=O)Nc1cccc(C(=O)NC2Cc3ccccc3C2)c1 [Compound 372, N-INDAN-2-YL-3-ISOBUTYRYLAMINO-BENZAMIDE]", "eNOS promoter", "log10 of EC50", 3.20],
  ["O=C(NC1Cc2ccccc2C1)c1ccc(F)cc1 [Compound 21, 4-FLUORO-N-(INDAN-2-YL)-BENZAMIDE]", "eNOS promoter", "log10 of EC50", 2.90],
  ["O=C(NC1Cc2ccccc2C1)c1ccc(Br)cc1 [Compound 289, 4-BROMO-N-INDAN-2-YL-BENZAMIDE]", "eNOS promoter", "log10 of EC50", 2.15]
]}

So what does the record say about log10 of EC50 for O=C(NC1Cc2ccc(OS(=O)(=O)c3ccccc3)cc2C1)c1ccc(F)cc1 (stereo not shown) ?
4.48
